For each of the compounds below, state its growth.
Tested on: OVCAR-5 ovarian
experiment: NCI-60 one-dose screen, 48 h (100 = growth as untreated, 0 = no growth, -100 = all killed)
assay setup: 10 µM unless noted
The panel holds about 83,000 compounds, 20% with a hit somewhere; the sample as a whole holds those more often.
Give bare numbers, in %.

Answer for every listed entry: what is its growth? The entries follow.
1. COc1ccc(-c2cnc(-c3ccc(Cl)cc3)[nH]2)cc1OC
2. Nc1c2c(c(O)c3c1=C(CO)C=N3)=NCCS2
3. C=C1C[C@H](O)[C@H](Br)C(C)(C)[C@@]12CCC(C)=C(Cl)C2
4. COc1ccc(C(=O)c2cc(OC)c(OC)c(OC)c2)cc1/C=C/C(=O)c1ccc(F)cc1
5. Clc1ccc2c(NCCCNCc3ccc4c(c3)OCO4)ccnc2c1
6. Cc1c(N)ccc(-c2ccc(N)c(C)c2S(=O)(=O)O)c1S(=O)(=O)O
7. O=C(CNc1nc(-c2ccc(Cl)cc2)cs1)Nc1ccc(-c2nc3ccccc3s2)cc1
8. O=C(NOCCO)c1cc(CN2OCCCC2=O)c(F)c(F)c1Nc1ccc(I)cc1F

1: 98.2; 2: -70.5; 3: 43.3; 4: 1.82; 5: 85.8; 6: 101; 7: 90.4; 8: 20.2

Dear reader, for each entry below, please note its growth.
1. C[C@@H]1COCCN1c1cc(C2([S@](C)(=N)=O)CC2)nc(-c2ccnc3[nH]ccc23)n1
2. CCc1ccc(C2=C(O)C(=O)C(c3ccc(CC)cc3)=C(O)C2=O)cc1
3. Brc1ccc([I+]c2ccc(Br)cc2)cc1
4. COc1ccc(-c2ccc3c(N4CCOC[C@@H]4C)nc(N4CCOC[C@@H]4C)nc3n2)cc1CO
5. CNC(=O)c1nn(C)c2c1C(C)(C)Cc1cnc(Nc3ccc(N4CCN(C)CC4)cc3)nc1-2
6. COc1ccc(OC)c(NC2=C(SCCc3ccccc3)C(=O)c3ccccc3C2=O)c1
7. CNC(=O)c1cc(Oc2ccc3nc(NC(=O)Nc4ccc(Cl)c(C(F)(F)F)c4)sc3c2)ccn1

1. 34.5
2. -0.569
3. 61
4. 7.09
5. 9.13
6. 99.3
7. 30.8

Working through the 3 compounds below one at a time, give growth for each.
1. CC(=O)OCCC/C(=C\c1ccc2ccccc2c1)[N+](=O)[O-]
2. Cc1nc2ccc(-n3ncc(C(=O)c4cc5ccccc5[nH]4)c3N)cc2[nH]1
3. CCN(CC)C(=O)C[N+](C)(C)CCOC(c1ccccc1)c1ccccc1

1. -93.2
2. 65.9
3. 100
